Molecular target: IDO (Homo sapiens (Human), UniProt P14902)
Sequence (P14902 whole entry): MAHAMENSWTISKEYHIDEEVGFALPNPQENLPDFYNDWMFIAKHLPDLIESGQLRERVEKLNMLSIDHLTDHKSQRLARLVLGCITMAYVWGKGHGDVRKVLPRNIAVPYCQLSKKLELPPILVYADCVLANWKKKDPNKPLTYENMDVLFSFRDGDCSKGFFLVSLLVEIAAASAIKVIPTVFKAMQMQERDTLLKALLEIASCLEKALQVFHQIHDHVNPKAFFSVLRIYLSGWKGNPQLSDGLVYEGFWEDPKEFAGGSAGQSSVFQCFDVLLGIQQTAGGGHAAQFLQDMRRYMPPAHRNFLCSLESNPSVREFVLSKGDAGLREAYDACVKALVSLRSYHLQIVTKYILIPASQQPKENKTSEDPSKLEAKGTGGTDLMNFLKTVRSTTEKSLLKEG
Experiment: SKOV3 kynurenine cell-based assay (IDO induced by IFN-γ)
Details: SKOV3 human ovarian adenocarcinoma cells, 500 ng/ml IFN-γ, 500 μM L-tryptophan, 48 hours; read-out: SKOV3 Kynurenine cell based assay, pIC50 (converted)
property_name: IC50

CS(=O)(=O)c1ccc(-c2cc(C(F)(F)F)cc3cncn23)cc1    32.4 to 100 µM
CS(=O)(=O)c1ccc(-c2cc(Cl)cn3cncc23)cc1    32.4 to 100 µM
CC1(C)CN(c2cc(C(F)(F)F)cn3cncc23)CCN1S(C)(=O)=O    ≤ 3.16 µM

In the following, a different compound is considered.
Supply recorded IC50 for CS(=O)(=O)N1CCC(c2cc(C(F)(F)F)cn3cncc23)CC1 here.
32.4 to 100 µM

----------
Target: IDO (Homo sapiens (Human))
Test: SKOV3 kynurenine cell-based assay (IDO induced by IFN-γ)
Settings: SKOV3 human ovarian adenocarcinoma cells, 500 ng/ml IFN-γ, 500 μM L-tryptophan, 48 hours
property_name: SKOV3 Kynurenine cell based assay, pIC50

CC(=O)N1CCN(c2cc(C(F)(F)F)cn3cncc23)CC1 [Compound 1002]    + (+ = pIC50 4.00-4.49)
CS(=O)(=O)N1CCN(c2cc(Cl)cn3cncc23)CC1 [Compound 1006]    + (+ = pIC50 4.00-4.49)

----------
Target: IDO (Homo sapiens (Human), UniProt P14902)
Experiment: SKOV3 kynurenine cell-based assay (IDO induced by IFN-γ)
Details: SKOV3 human ovarian adenocarcinoma cells, 500 ng/ml IFN-γ, 500 μM L-tryptophan, 48 hours
property_name: SKOV3 Kynurenine cell based assay, pIC50

CNC(=O)c1ccc(C2CCN(c3cc(C(F)(F)F)cc4cncn34)CC2)cc1    +++ (+++ = pIC50 ≥5.50)
CC1(C)CN(c2cc(C(F)(F)F)cc3cncn23)CCN1S(C)(=O)=O    +++ (+++ = pIC50 ≥5.50)
CC(=O)Nc1ccc(C2CCN(c3cc(C(F)(F)F)cc4cncn34)CC2)cc1    +++ (+++ = pIC50 ≥5.50)

----------
Target: UniProtKB P14902
Experiment: SKOV3 kynurenine cell-based assay (IDO induced by IFN-γ)
Conditions: SKOV3 human ovarian adenocarcinoma cells, 500 ng/ml IFN-γ, 500 μM L-tryptophan, 48 hours
property_name: SKOV3 Kynurenine cell based assay, pIC50

CS(=O)(=O)N1CCN(c2cc(Cl)cc3cncn23)CC1    + (+ = pIC50 4.00-4.49)
CS(=O)(=O)c1ccc(-c2cc(Cl)cc3cncn23)cc1    + (+ = pIC50 4.00-4.49)
CS(=O)(=O)c1ccc(-c2cc(C(F)(F)F)cn3cncc23)cc1    + (+ = pIC50 4.00-4.49)

----------
Target: IDO (Homo sapiens (Human), UniProt P14902)
Test: hIDO biochemical coupled assay
Settings: 45 μM L-tryptophan, 17 minutes at room temperature
property_name: hIDO biochemical assay, pIC50

CS(=O)(=O)N1CCC(c2cc(C(F)(F)F)cc3cncn23)CC1 [Compound 1017]    + (+ = pIC50 4.00-4.49)
O=C(O)N1CCC(c2cc(C(F)(F)F)cc3cncn23)CC1 [Compound 1020]    + (+ = pIC50 4.00-4.49)
CS(=O)(=O)N1CCC(Nc2cc(C(F)(F)F)cn3cncc23)CC1 [Compound 1009]    +/− (+/− = pIC50 <4.00)
CS(=O)(=O)N1CCN(c2cc(C(F)(F)F)cn3cncc23)CC1 [Compound 1003]    +/− (+/− = pIC50 <4.00)

In the following, a different compound is considered.
Supply recorded hIDO biochemical assay, pIC50 for CC(=O)N1CCC(c2cc(C(F)(F)F)cn3cncc23)CC1 [Compound 1004] here.
+ (+ = pIC50 4.00-4.49)
